Ref: ChEMBL document CHEMBL1201862

system: SNB-19; test: NCI tumour cell line growth inhibition, 48 h
Calls of active or inactive are those of the source. Cut-off read from the data, not from the text of the source: active = GI50 up to about 1.1 µM and inactive = higher.
The entries below are paired with their reported GI50.

Request the reported GI50 associated with COc1cc(/C=C2/C(=O)N(C(=O)c3ccc(Cl)cc3)N=C2C)cc(OC)c1OC
> 100 µM (inactive)

Continuing:
Request the reported GI50 associated with CC(=O)c1cccc(C)c1C(=O)O
> 100 µM (inactive)

Request the reported GI50 associated with CCCCOC(=O)/C(CC(=O)C=C(C)C)=N\NS(=O)(=O)c1ccc(C)cc1
> 100 µM (inactive)

---

test system: Malme-3M; assay: NCI tumour cell line growth inhibition, 48 h
Calls of active or inactive are those of the source. Cut-off read from the data, not from the text of the source: active = GI50 up to about 1.1 µM and inactive = higher. Non-standard residues stand in square brackets, D forms with d. Residues, ends and D or L forms follow the SMILES beside them. *: point of attachment. Ac5c = NC1(C(=O)O)CCCC1; Cbz = O=C(OCc1ccccc1)*; Boc = CC(C)(C)OC(=O)*; tBu = CC(C)(C)*
Just give me one of these, please: YES (active), NO (inactive)

Please state the recorded outcome for this compound: CC(=O)/C=C/C1=C(C)CCCC1(C)CC(C)C (stereo unspecified)
NO

Please state the recorded outcome for this compound: Cn1c(=O)c2c(nc(C[N+]3([O-])CCOCC3)n2C)n(C)c1=O
NO

Please state the recorded outcome for this compound: CC(C)CC(C(N)=O)C(=O)NC(Cc1ccccc1)NC(=O)CNC(=O)C(C)NC(=O)C(N)Cc1ccc(O)cc1 (stereo unspecified)
NO

Please state the recorded outcome for this compound: CC1=CC2=C(C)C3(CC3)[C@@](C)(O)C(=O)C2=C1
YES

Please state the recorded outcome for this compound: NC(=O)c1ccc[n+](C2=C([N-]S(=O)(=O)c3ccccc3)C(=O)c3ccccc3C2=O)c1
NO

Please state the recorded outcome for this compound: CN1COCc2cc3cc4c(cc3nc21)OCCO4
NO

Please state the recorded outcome for this compound: C/C=C/[P+](c1ccccc1)(c1ccccc1)c1ccccc1
YES

Please state the recorded outcome for this compound: COC(=O)C1(NC(=O)C(Cc2ccccc2)NC(=O)C(NC(=O)C(CCCCNC(=O)OC(C)(C)C)NC(=O)C(Cc2c[nH]c3ccccc23)NC(=O)C(Cc2ccccc2)NC(=O)OCc2ccccc2)C(C)OC(C)(C)C)CCCC1 (stereo unspecified) (Cbz-FWK(Boc)T(tBu)F[Ac5c]-OMe; configuration not given here)
NO

Please state the recorded outcome for this compound: CCOC(=O)c1cc2c3ccn(Cc4ccccc4)c3c3c(C)noc3c2[nH]1
NO

Please state the recorded outcome for this compound: COC1C2c3cc4c(cc3CC(C#N)(c3ccccc32)N1C(=O)c1ccccc1)OCO4 (stereo unspecified)
NO

Continuing:
Please state the recorded outcome for this compound: COc1ccc(C(=O)/C=C/c2ccc(OCCSCCCCCCCCCCSCCOc3ccc(/C=C/C(=O)c4ccc(OC)c(OC)c4)cc3)cc2)cc1OC
NO

Please state the recorded outcome for this compound: CCCCCCCC1C(C)c2c([nH]c3ccccc23)C2C(=O)N(c3ccc(OC)cc3)C(=O)C21 (stereo unspecified)
NO

---

test system: NCI-H226; assay: NCI tumour cell line growth inhibition, 48 h
Active and inactive are the calls of the source. Cut-off read from the data, not from the text of the source: active = GI50 up to about 1.1 µM and inactive = higher.
The entries below are paired with their reported GI50.

Guide cases for GI50, answers given:
Request the reported GI50 associated with COC(O)C(=O)c1c2c(cc3c1CCC3)CCCC2 (stereo not drawn)
16.5 µM (inactive)

Request the reported GI50 associated with CC(=O)NC(Cc1ccc(OP(=O)(OCc2ccc([N+](=O)[O-])o2)N(C)CCCCCl)cc1)C(=O)NC(C)c1ccc(OCC2CCCCC2)c(C(N)=O)c1 (stereo not drawn)
5.94 µM (inactive)

Request the reported GI50 associated with O=C(NCCCCNCCCNC(=O)C(F)(F)F)C(F)(F)F
> 100 µM (inactive)

Request the reported GI50 associated with OC12c3ccccc3C1CCCCCCCCCC21OCCO1 (stereo not drawn)
> 100 µM (inactive)

Request the reported GI50 associated with O=C(O)COc1ccc(C(=O)/C(SS/C(C(=O)c2ccc(OCC(=O)O)c(Cl)c2Cl)=C2\C=C(c3ccccc3Cl)SS2)=C2/C=C(c3ccccc3Cl)SS2)c(Cl)c1Cl
17.7 µM (inactive)

Request the reported GI50 associated with COC(=O)[C@@]12OC[C@]34C([C@@H](O)C1O)[C@@]1(C)CC(=O)C(O)=C(C)C1C[C@H]3OC(=O)[C@H](OC(=O)/C=C(/c1ccccc1)C(F)(F)F)[C@H]42 (stereo partly drawn)
2.02 µM (inactive)

Request the reported GI50 associated with COCC(C)(C)/N=C/N1Cc2cc3ccccc3nc2C1
> 100 µM (inactive)

Continuing:
Request the reported GI50 associated with Cc1c(C(=O)/C=C/c2ccc3c(c2)OCO3)[n+]([O-])c2ccccc2[n+]1[O-]
16 µM (inactive)

---

tested on: RXF 393; experiment: NCI tumour cell line growth inhibition, 48 h
Activity calls are given as the source filed them. Rule as the data show it: active = GI50 up to about 1.1 µM and inactive = higher.
Just give me one of these, please: 1 (yes) for active, 0 (no) for inactive

Past entries and their recorded results:
Please state the recorded outcome for this compound: C=C1C(=O)O[C@H]2C/C(C=O)=C\[C@H]3O[C@H]3/C(COC(=O)C(C)C)=C/CC12 (stereo not given in full)
0 (no)

Please state the recorded outcome for this compound: CCC1(O)C(=O)OCc2c1cc1n(c2=O)Cc2cc3ccc(CO)cc3nc2-1 (stereo not given)
0 (no)

Please state the recorded outcome for this compound: O=c1c(O)c(-c2ccc(O)c(O)c2)oc2cc(O)ccc12
0 (no)

Continuing:
Please state the recorded outcome for this compound: O=C(/C=C\c1ccccc1-c1ccccc1)c1ccccc1
0 (no)

Please state the recorded outcome for this compound: Cn1c(=O)n(C2(C)C[Se]C2)c2ccccc21
0 (no)

Please state the recorded outcome for this compound: COc1cccc2c1-c1c(OC)cccc1SS2
0 (no)

Please state the recorded outcome for this compound: C/C(=N\NC(=S)N(C)CCN(C)C(=S)N/N=C(\C)c1ccccn1)c1ccccn1
1 (yes)

Please state the recorded outcome for this compound: COc1cc(/C=C2/SC(c3ccccc3)N(c3ccc(Cl)cc3)C2=O)cc(OC)c1OC (stereo not given)
0 (no)

Please state the recorded outcome for this compound: CCc1cccc(C)c1NC(=O)CC1C(=O)Nc2ccccc2S1(=O)=O (stereo not given)
0 (no)

Please state the recorded outcome for this compound: CC1CC/C(=C\c2ccc(F)cc2)C2=C1C(c1ccc(F)cc1)NC(=S)N2 (stereo not given)
0 (no)

---

test system: HOP-92; assay: NCI tumour cell line growth inhibition, 48 h
Active and inactive are the calls of the source. Cut-off read from the data, not from the text of the source: active = GI50 up to about 1.1 µM and inactive = higher.
Just give me one of these, please: active, inactive

Past entries and their recorded results:
Please state the recorded outcome for this compound: CN(C)c1ccc(/C=C(\C#N)C(N)=C(C#N)C#N)cc1
inactive

Please state the recorded outcome for this compound: COCC1OC(OC2C3=C(C(C)C)CCC3(C)/C=C3\C(CCC3(O)COC)C(C)C2O)C(O)C2OC3OC12OC3(C)C1CO1 (stereo not given)
inactive

Please state the recorded outcome for this compound: CCCCCCCCCCCCCCCCOCC(Cl)CP(=O)(O)OP(=O)(O)OCC1OC(n2cnc3c(N)ncnc32)C(O)C1O (stereo not given)
inactive

Please state the recorded outcome for this compound: COc1ccc(CCc2ccccc2CC(=O)O)cc1
inactive

Please state the recorded outcome for this compound: OCc1cc2c([nH]c3ccccc32)c(C(O)CO)n1 (stereo not given)
inactive

Please state the recorded outcome for this compound: CC(C)(O)[C@H](CCO)O[Si](c1ccccc1)(c1ccccc1)C(C)(C)C
inactive

Please state the recorded outcome for this compound: [N-]=[N+]=C1C(=O)C2CC3CC(C2)CC1C3
inactive

Please state the recorded outcome for this compound: Cc1cc(C)c2c(c1)CC1(Cc3ccc(C)c(C)c3C1=O)C2=O (stereo not given)
inactive

Please state the recorded outcome for this compound: CCOC(=O)[C@]12C3C=CC(C3)C1C(=O)C1OC12 (stereo not given in full)
active

Continuing:
Please state the recorded outcome for this compound: O=C1c2cccnc2-c2nccc3c2c1nc1ccccc13 [ASCIDIDEMIN]
active

---

tested on: M14; test: NCI tumour cell line growth inhibition, 48 h
Calls of active or inactive are those of the source. No stated cut-off is given here; in the data, active = GI50 up to about 1.1 µM and inactive = higher. Non-standard residues stand in square brackets, D forms with d. Residues, ends and D or L forms follow the SMILES beside them. *: point of attachment. Ac5c = NC1(C(=O)O)CCCC1; Cbz = O=C(OCc1ccccc1)*; Boc = CC(C)(C)OC(=O)*; tBu = CC(C)(C)*
The entries below are paired with their reported GI50.

Request the reported GI50 associated with O=c1c(O)c(-c2ccc(O)c(O)c2)oc2cc(O)ccc12 [FISETIN]
18.2 µM (inactive)

Request the reported GI50 associated with CC(=O)NC(Cc1ccc(OP(=O)(OCc2ccc([N+](=O)[O-])o2)N(C)CCCCCl)cc1)C(=O)NC(C)c1ccc(OCC2CCCCC2)c(C(N)=O)c1 (configuration not stated)
2.22 µM (inactive)

Request the reported GI50 associated with COc1ccc2nc3c([N+](=O)[O-])ccc4c3c(c2c1)N=CN4CCCN(C)C
4.73 µM (inactive)

Continuing:
Request the reported GI50 associated with O=C(NC1C(=O)NC(CCc2ccccc2)NC1=O)OCc1ccccc1 (configuration not stated)
> 100 µM (inactive)

Request the reported GI50 associated with CC(C)CC(C(N)=O)C(=O)NC(Cc1ccccc1)NC(=O)CNC(=O)C(C)NC(=O)C(N)Cc1ccc(O)cc1 (configuration not stated)
> 100 µM (inactive)

Request the reported GI50 associated with CC[P+](C)(Cc1ccccc1)c1ccccc1 (configuration not stated)
> 100 µM (inactive)

Request the reported GI50 associated with COC(=O)C1(NC(=O)C(Cc2ccccc2)NC(=O)C(NC(=O)C(CCCCNC(=O)OC(C)(C)C)NC(=O)C(Cc2c[nH]c3ccccc23)NC(=O)C(Cc2ccccc2)NC(=O)OCc2ccccc2)C(C)OC(C)(C)C)CCCC1 (configuration not stated) (Cbz-FWK(Boc)T(tBu)F[Ac5c]-OMe; configuration not given here)
18.9 µM (inactive)
